Values from patent US20250215030A1

Biological target: pSTAT6 (pY641-STAT6) (Homo sapiens, UniProt P42226)
Sequence (P42226 1-847): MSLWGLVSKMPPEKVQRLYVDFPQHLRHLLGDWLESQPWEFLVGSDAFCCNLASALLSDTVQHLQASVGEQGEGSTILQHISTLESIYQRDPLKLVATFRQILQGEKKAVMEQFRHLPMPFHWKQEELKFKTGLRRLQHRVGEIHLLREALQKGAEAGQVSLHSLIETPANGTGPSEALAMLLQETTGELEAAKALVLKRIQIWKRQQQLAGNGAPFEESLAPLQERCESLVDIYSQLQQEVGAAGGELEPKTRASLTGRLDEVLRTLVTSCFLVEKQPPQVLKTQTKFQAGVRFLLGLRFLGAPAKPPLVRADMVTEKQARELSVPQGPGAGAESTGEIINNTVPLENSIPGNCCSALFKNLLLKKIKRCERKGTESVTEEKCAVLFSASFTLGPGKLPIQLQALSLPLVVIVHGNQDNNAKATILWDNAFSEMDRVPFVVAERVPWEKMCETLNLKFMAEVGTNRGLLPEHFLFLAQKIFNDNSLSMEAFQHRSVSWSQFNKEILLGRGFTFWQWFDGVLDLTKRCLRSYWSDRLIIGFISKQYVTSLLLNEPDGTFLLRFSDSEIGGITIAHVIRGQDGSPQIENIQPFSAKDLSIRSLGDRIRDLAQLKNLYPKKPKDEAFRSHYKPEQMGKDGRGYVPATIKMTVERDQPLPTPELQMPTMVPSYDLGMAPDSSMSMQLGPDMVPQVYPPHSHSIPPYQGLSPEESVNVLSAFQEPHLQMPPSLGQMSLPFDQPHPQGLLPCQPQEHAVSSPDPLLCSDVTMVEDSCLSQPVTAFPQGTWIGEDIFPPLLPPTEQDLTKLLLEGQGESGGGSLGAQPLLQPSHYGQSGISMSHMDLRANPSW
Assay: MSD-pSTAT-PBMC Assay (pSTAT6, IL-4 stimulated)
Details: compound 3 hrs, then 1 ng/mL IL-4 for 10 min
pIC50: −log10 of the molar value.

{"columns": ["molecule", "pIC50"],
 "data": [
  ["CCOC(=O)CCCOP(=O)(OCCCC(=O)OCC)C(F)(F)c1ccc2sc(C(=O)N[C@H]3C[C@@H]4C[C@@H]4C[C@H]4CC[C@@H](C(=O)N5CC(C(=O)N6CCOCC6)C5)N4C3=O)cc2c1 [Compound 177]", "< 5.52"],
  ["CC(C)(C)C(=O)OCOP(=O)(OCOC(=O)C(C)(C)C)C(F)(F)c1ccc2sc(C(=O)N[C@H]3C[C@@H]4C[C@@H]4C[C@H]4CC[C@@H](C(=O)N5CC6(CN(C(=O)Cc7ccccc7)C6)C5)N4C3=O)cc2c1 [Compound 210]", "6.00 to 7.00"],
  ["CC(C)(C)C(=O)OCOP(=O)(OCOC(=O)C(C)(C)C)C(F)(F)c1ccc2sc(C(=O)N[C@H]3C[C@@H]4C[C@@H]4C[C@H]4CC[C@@H](C(=O)N5CC(C(=O)N6CCOCC6)C5)N4C3=O)cc2c1 [Compound 145]", "5.52 to 6.00"],
  ["CC(C)(C)C(=O)SCCOP(=O)(OCCSC(=O)C(C)(C)C)C(F)(F)c1ccc2sc(C(=O)N[C@H]3C[C@@H]4C[C@@H]4C[C@H]4CC[C@@H](C(=O)N5CC(F)(c6ccccc6)C5)N4C3=O)cc2c1 [Compound 228]", "< 5.52"]
]}
